Assay: chemical genetic growth profiling, strain panel (AID 1159580)
Settings: S. cerevisiae deletion strains, growth OD, locus YGR135W, strain pre9
Out of some 5,500 compounds screened, about 2,000 (36%) were called active. About 18% were inconclusive and are not listed. Rule as the data show it: active = normalized growth mostly below about 0.91 (no sharp cut-off); inconclusive = no clear call, values can overlap the other calls; inactive = mostly above about 0.92. The list shows a part of the results.
Labels: active, inactive

>  <compound>
Cc1cc(N)c2ccccc2[n+]1CCCCCCCCCC[n+]1c(C)cc(N)c2ccccc21

>  <classAssignment>
active

$$$$
>  <compound>
C[C@H]1[C@H](C)CC[C@]2(C(=O)O)CC[C@]3(C)C(=CCC4[C@@]5(C)C[C@@H](O)[C@H](O)[C@@](C)(CO)C5[C@H](O)C[C@]43C)[C@H]12 (stereo partly drawn)

>  <classAssignment>
inactive

$$$$
>  <compound>
CC(=O)N1CCCC1C(=O)O (stereo not drawn)

>  <classAssignment>
inactive

$$$$
>  <compound>
C[C@H]1O[C@@H](O[C@H]2[C@@H](O)C[C@H](O[C@H]3[C@@H](O)C[C@H](O[C@H]4CC[C@]5(C)C6C[C@@H](O)[C@]7(C)[C@@H](C8=CC(=O)OC8)CC[C@]7(O)C6CC[C@@H]5C4)O[C@@H]3C)O[C@@H]2C)C[C@H](O)[C@@H]1O (stereo partly drawn)

>  <classAssignment>
inactive

$$$$
>  <compound>
CC(C)Nc1nc(Cl)nc(NC(C)C)n1

>  <classAssignment>
inactive

$$$$
>  <compound>
C/C=C(\C)C(=O)O[C@@H]1c2c(ccc3ccc(=O)oc23)OC(C)(C)[C@@H]1OC(C)=O

>  <classAssignment>
inactive

$$$$
>  <compound>
C/C=C(/C)C(=O)O[C@@H]1Cc2c(ccc3ccc(=O)oc23)OC1(C)C

>  <classAssignment>
inactive

$$$$
>  <compound>
CO[C@H]1[C@H](O)[C@@H](O[C@H]2CC[C@]3(C=O)C4CC[C@]5(C)[C@@H](C6=CC(=O)OC6)CC[C@]5(O)C4CC[C@@H]3C2)O[C@@H](C)[C@@H]1O (stereo partly drawn)

>  <classAssignment>
inactive

$$$$
>  <compound>
COc1ccccc1N1CCN(CCCNc2cc(=O)n(C)c(=O)n2C)CC1

>  <classAssignment>
inactive

$$$$
>  <compound>
NC(=O)c1ccc([N+](=O)[O-])cc1Cl

>  <classAssignment>
inactive

$$$$
>  <compound>
CC12CCC3C(CCC4(O)CC(O)CCC34/C=N/NC(N)=O)C1(O)CCC2C1=CC(=O)OC1 (stereo not drawn)

>  <classAssignment>
inactive

$$$$
>  <compound>
CC(=O)OC1CC[C@@]2(C)C(CCC3C2CC[C@]2(C)C(C4=CC(=O)OC4)C(OC(C)=O)CC32O)C1 (stereo partly drawn)

>  <classAssignment>
inactive

$$$$
>  <compound>
CC(=O)OCC(=O)[C@@]1(O)CCC2C3C[C@H](C)C4=CC(=O)C=CC4(C)C3[C@@H](O)CC21C (stereo partly drawn)

>  <classAssignment>
inactive

$$$$
>  <compound>
CC(=O)O[C@@H]1c2c(ccc3ccc(=O)oc23)OC(C)(C)[C@@H]1OC(=O)CC(C)C

>  <classAssignment>
inactive

$$$$
>  <compound>
Cc1c(C(N)=O)cc([N+](=O)[O-])cc1[N+](=O)[O-]

>  <classAssignment>
inactive

$$$$
>  <compound>
CNC[C@H](O)c1cccc(O)c1

>  <classAssignment>
inactive

$$$$
>  <compound>
Cc1ccc(C(C)C)c(O)c1C(=O)O

>  <classAssignment>
inactive

$$$$
>  <compound>
COc1nc(NC(C)C)nc(NC(C)C)n1

>  <classAssignment>
inactive

$$$$
